System: HCT116
procedure_details: viability inhibition vs untreated; higher = more cytotoxic
test_parameters: genotype: MTA1-KO; 400 nM; 72 h
Reported viability inhibition values follow for various compounds
property_name: viability inhibition (%)

| compound | system_under_test | u | reported_measurement |
| --- | --- | --- | --- |
| Nc1ncnc2c1c(-c1cnc3[nH]ccc3c1)nn2C1CCCC1 | HCT116 | % | 43.5 |
| Cc1ccc2nc(N)[nH]c(=O)c2c1Sc1ccncc1 | HCT116 | % | -1.21 |
| CCN(CC)C(=S)SSC(=S)N(CC)CC | HCT116 | % | -25.3 |
| Nc1nonc1C(=Nc1ccc(F)c(Cl)c1)NO | HCT116 | % | 16.9 |
| Cc1nc(-c2nc(-c3ccc(OC(F)(F)F)cc3)no2)nn1Cc1cccc(N2CCC(S(C)(=O)=O)CC2)c1 | HCT116 | % | 26.2 |
| Nc1ccc(/C=C/C(=O)NCc2cc3cc(-c4ccc(C(=O)N5CCC(F)(F)CC5)cc4)cc(-c4ccc(F)cc4)c3o2)cn1 | HCT116 | % | -24 |
| COc1ccccc1OCC(O)COC(N)=O (stereo not drawn) | HCT116 | % | -9.99 |
| C=CC[C@@H]1/C=C(\C)C[C@H](C)C[C@H](OC)[C@H]2O[C@@](O)(C(=O)C(=O)N3CCCC[C@H]3C(=O)O[C@H](/C(C)=C/[C@@H]3CC[C@@H](O)[C@H](OC)C3)[C@H](C)[C@@H](O)CC1=O)[C@H](C)C[C@@H]2OC | HCT116 | % | 0.155 |

====

Test system: HCT116
procedure_details: viability inhibition vs untreated; higher = more cytotoxic
test_parameters: genotype: MTA1-KO; 16 nM; 72 h
Reported viability inhibition values follow for various molecules
property_name: viability inhibition (%)

| molecule | u | reported_measurement |
| --- | --- | --- |
| NS(=O)(=O)c1cc2c(cc1Cl)NC=NS2(=O)=O [Chlorothiazide] | % | -10.2 |
| CO[C@@H](C)Cn1c(=O)n(C)c2cnc3ccc(-c4cncc(C(C)(C)O)c4)cc3c21 | % | -8.01 |
| O=C(O)c1ccc2c(c1)nc(Nc1cccc(Cl)c1)c1ccncc12 | % | -17.2 |
| CCN[C@H]1CN(CCCOC)S(=O)(=O)c2sc(S(N)(=O)=O)cc21 [Brinzolamide] | % | -13.1 |
| C=C1C(=O)O[C@H]2[C@H]1CC/C(C)=C/CC[C@@]1(C)O[C@@H]21 [Parthenolide] | % | 13.7 |
| COc1ccc(-c2ccccc2)cc1NS(=O)(=O)c1cc(Cl)cc(Cl)c1O | % | 4.57 |
| Nc1ccc(/C=C/C(=O)NCc2cc3cc(-c4ccc(C(=O)N5CCC(F)(F)CC5)cc4)cc(-c4ccc(F)cc4)c3o2)cn1 | % | -17.2 |
| Cc1[nH]nc(C(F)(F)F)c1Cc1sc2c(c1C(=O)N1C[C@](C)(O)CO1)c(=O)n(C)c(=O)n2C(C)C | % | -7.19 |

====

Reported viability inhibition values follow for various compounds
System: HCT116
procedure_details: viability inhibition vs untreated; higher = more cytotoxic
test_parameters: genotype: MTA1-KO; 400 nM; 72 h
Structures can show the parent of a compound that is named as a salt.
property_name: viability inhibition (%)

| compound | system_under_test | property_name | reported_measurement |
| --- | --- | --- | --- |
| C[C@]12CC[C@H](O)C[C@H]1CC[C@@H]1[C@@H]2CC[C@]2(C)[C@@](O)(c3ccoc3)CC[C@]12O | HCT116 | viability inhibition | 10 |
| O=C(C[C@H]1NCCC[C@@H]1O)Cn1cnc2cc(Br)c(Cl)cc2c1=O [Halofuginone hydrobromide] | HCT116 | viability inhibition | 73.6 |
| CN1CCN(C(=O)/C=C/c2ccc([N+](=O)[O-])o2)CC1 | HCT116 | viability inhibition | -24 |
| Cc1c(CN2CCN(c3cccc(C(F)(F)F)c3)CC2)cc(-c2ccccc2)n1NC(=O)c1ccncc1 [Sudoterb free base] | HCT116 | viability inhibition | -16 |
| CC(C)(C#N)c1ccc(N2C(=O)OCc3cnc4ccc(-c5cnc6ccccc6c5)cc4c32)cc1 | HCT116 | viability inhibition | -26.7 |
| CC1(C)O[C@@H]2[C@@H](CO[C@@]3(COS(N)(=O)=O)OC(C)(C)O[C@@H]23)O1 [Topiramate] | HCT116 | viability inhibition | -12.6 |
| NS(=O)(=O)c1cc2c(cc1Cl)NCNS2(=O)=O [Hydrochlorothiazide] | HCT116 | viability inhibition | -3.75 |
| O=C(Nc1ccc(O)cc1)c1ccccc1O | HCT116 | viability inhibition | -16 |
| Oc1cccc(-c2nc(N3CCOCC3)c3oc4ncccc4c3n2)c1 | HCT116 | viability inhibition | -6.55 |
| NCCCCN=C(N)N [Agmatine sulfate salt] | HCT116 | viability inhibition | 1.54 |
| CC[C@H](C)C(=O)O[C@H]1CCC=C2C=C[C@H](C)[C@H](CC[C@@H]3C[C@@H](O)CC(=O)O3)[C@H]21 | HCT116 | viability inhibition | -17.3 |
| O=C(O)c1ccc2c(c1)nc(Nc1cccc(Cl)c1)c1ccncc12 | HCT116 | viability inhibition | -18.2 |
| COC(=O)c1ccc(O)c(NC(=O)COc2ccc(C34CC5CC(CC(C5)C3)C4)cc2)c1 | HCT116 | viability inhibition | -7.41 |
| Cc1cc(C2CCCCC2)n(O)c(=O)c1 [Ciclopirox ethanolamine] | HCT116 | viability inhibition | -14.4 |
| COc1cc2c(cc1O)CC[C@@H]1[C@@H]2CC[C@]2(C)[C@@H](O)CC[C@@H]12 | HCT116 | viability inhibition | 15.7 |
| CC(=O)O[C@H]1C[C@H](O[C@H]2[C@@H](O)C[C@H](O[C@H]3[C@@H](O)C[C@H](O[C@H]4CC[C@@]5(C)[C@H](CC[C@@H]6[C@@H]5C[C@@H](O)[C@]5(C)[C@@H](C7=CC(=O)OC7)CC[C@]65O)C4)O[C@@H]3C)O[C@@H]2C)O[C@H](C)[C@H]1O[C@@H]1O[C@H](CO)[C@@H](O)[C@H](O)[C@H]1O [Lanatoside C] | HCT116 | viability inhibition | 87.7 |
| O=C(c1ccc(NS(=O)(=O)c2cccc3cccnc23)cc1)N1CCN(CC2CC2)CC1 | HCT116 | viability inhibition | -12.6 |
| OCc1ccc(-c2ccc(-c3ccc(CO)s3)o2)s1 | HCT116 | viability inhibition | 91.7 |
| Cc1c(C(=O)N2CCOc3ccc(-c4ccc(N)nc4)cc3C2)ccc(S(C)(=O)=O)c1F | HCT116 | viability inhibition | 0.224 |
| CC(=O)Nc1nnc(S(N)(=O)=O)s1 [Acetazolamide] | HCT116 | viability inhibition | -15.4 |
| CCCCCCCCCCC[C@@H](C[C@@H]1OC(=O)[C@H]1CCCCCC)OC(=O)[C@H](CC(C)C)NC=O | HCT116 | viability inhibition | -2.16 |
| NC(=O)c1ncn([C@@H]2O[C@H](CO)[C@@H](O)[C@H]2O)c1N | HCT116 | viability inhibition | -7.18 |
| C[C@H]1CCC/C=C/[C@@H]2C[C@H](O)C[C@H]2[C@H](O)/C=C/C(=O)O1 | HCT116 | viability inhibition | 104 |
| NN=C(N)N [Aminoguanidine hydrochloride] | HCT116 | viability inhibition | -23.9 |
| CCC(=O)Nc1cccc(Oc2nc(Nc3ccc(N4CCN(C)CC4)cc3OC)ncc2Cl)c1 | HCT116 | viability inhibition | -8 |
| CC(C)(CCCCCC(O)CCCCCC(C)(C)C(=O)O)C(=O)O | HCT116 | viability inhibition | -6.64 |
| COc1ccc(-c2ccc3c(N4CCOC[C@@H]4C)nc(N4CCOC[C@@H]4C)nc3n2)cc1CO | HCT116 | viability inhibition | 15.5 |
| Cc1c(CN2CCN(C(=O)[C@H](C)O)CC2)sc2c(N3CCOCC3)nc(-c3cnc(N)nc3)nc12 | HCT116 | viability inhibition | 38.8 |
| c1cc(-c2cnn3cc(-c4ccc(OCCN5CCCCC5)cc4)cnc23)ccn1 [Dorsomorphin dihydrochloride] | HCT116 | viability inhibition | 3.35 |
| CC[C@H](C)C(=O)O[C@H]1C[C@@H](C)C=C2C=C[C@H](C)[C@H](CC[C@@H]3C[C@@H](O)CC(=O)O3)[C@H]21 | HCT116 | viability inhibition | -7.31 |
| O=C1NC(=O)/C(=C/c2ccc3nccc(-c4ccncc4)c3c2)S1 | HCT116 | viability inhibition | 10.1 |
| CNCc1cc(-c2ccccc2F)n(S(=O)(=O)c2cccnc2)c1 [Vonoprazan fumarate] | HCT116 | viability inhibition | -19.3 |
